Hello, the source for this data is patent US20250340659A1, in case you need it.

system: T1, canine OX40L, full length membrane form, expressed on HEK293 cells (canine)
T1 construct: also called OX40L expressing HEK; HEK OX40L cells
T1 chain: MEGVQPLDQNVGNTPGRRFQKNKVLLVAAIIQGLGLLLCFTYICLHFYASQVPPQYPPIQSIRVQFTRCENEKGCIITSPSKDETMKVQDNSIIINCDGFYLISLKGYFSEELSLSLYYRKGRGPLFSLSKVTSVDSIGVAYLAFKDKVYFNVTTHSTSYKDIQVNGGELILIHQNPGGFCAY
assayInfo: flow cytometry, OX40L HEK minus WT HEK
Listing of entries alongside the reported GEO mean difference.
Write the value as a bare number.

These recorded examples may help you get a feel for the data.
[
  {
    "binder": "PMX291 (antibody, V domains shown) VH: EVQLVESGGDLLKPGGSLRLSCVASGFPFRNYDMTWVRQAPGKGLQWVAAIHYDGSNTYYTDAVKGRFTISRDNARNTVFLQMNSLRAEDTAVYYCAKKFNNYRPFDYWGQGTLVTVSS VL: DIVMTQTPPSLSVSPRETPSISCKASQSLLRSDGNTYLEWYLQKPGQSPQLLIYLVSNRFTGVSDRFSGSGSGTDFTLRISRVEANDAGVYYCGQGTQLPWTFGAGTKVELK",
    "quantityMeasured": "GEO mean difference",
    "observedMeasurement": 459000
  },
  {
    "binder": "PMX027 (antibody, V domains shown, also called PMX27) VH: EVHLVESGGDLVKPGGSLRLSCVASGFTFSTYHMSWVRQAPGKGLQWVAFINAGEISTNYADAVKGRFTISRDNAKNIFYLQMNSLRAEDTAVYYCATGHIWIRPFDYWGQGTLVTVSS VL: SYVLTQLPSMSVTLRQTARITCEGNSIGRKRVNWYQQKLGQVPVLIIYDDDSRPSGIPERFSGANSGNTATLTISGALAEDEAEYYCQVWDSSNNWVFGEGTQLTVL",
    "quantityMeasured": "GEO mean difference",
    "observedMeasurement": "1.62e+06"
  }
]

Entry PMX110 (antibody, V domains shown) VH: EVQLVESGGDLVRPGGSLRLSCVASGFTFSSYHMSWVRQAPGKGLQWVAFINSGGSSTTYADVVRGRFTISRDYAKNTLYLQMNSLRAEDTAVYYCASGSILTHFDYWGQGTLVTVSS VL: SFVLTQLPSVSVTLRQTARITCGGDSVGSKSVYWYQQKLGQAPVLIIYRDSNRPTGIPERFSGASSGNTATLTISGALAEDEADYYCQVWDNSNKAMFGGGTHLTVL has what GEO mean difference? 28400
